- target_of_assay: α7-HI (Rattus norvegicus, UniProt Q05941)
- Construct: expressed in transfected cells
- Sequence (Q05941 23-502): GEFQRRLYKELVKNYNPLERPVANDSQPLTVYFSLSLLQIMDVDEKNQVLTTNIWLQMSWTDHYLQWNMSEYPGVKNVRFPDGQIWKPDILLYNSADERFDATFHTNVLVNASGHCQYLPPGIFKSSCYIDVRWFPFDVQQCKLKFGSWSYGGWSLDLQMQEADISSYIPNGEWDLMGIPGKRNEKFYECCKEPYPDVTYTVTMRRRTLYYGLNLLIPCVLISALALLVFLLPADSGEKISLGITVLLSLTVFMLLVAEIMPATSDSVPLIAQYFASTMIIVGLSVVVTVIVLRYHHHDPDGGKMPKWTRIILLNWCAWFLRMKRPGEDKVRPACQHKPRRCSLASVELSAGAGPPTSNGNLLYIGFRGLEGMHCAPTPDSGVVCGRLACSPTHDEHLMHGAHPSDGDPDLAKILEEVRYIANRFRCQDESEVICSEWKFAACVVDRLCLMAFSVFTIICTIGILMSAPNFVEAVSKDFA
- assay_method_text: FLIPR Ca2+-sensitive fluorescence assay, α7-HI (agonist activity) in HEK 293 cells
- Assay type: cell-based
- Description: I) α7 Nicotinic Acetycholine Receptor Binding. Membranes were prepared for binding using HEK293 cells stably expressing the rat α7 nicotinic acetycholine receptor (rat α7 nAChR). […] II) A Ca^2+-Sensitive, Fluorescence-Based Assay α-7 for Nicotinic Acetylcholine Receptor Channel Function in Mammalian Cells (“FLIPR”). Summary: Lead compounds are evaluated for agonist activity at α-7, α3β4, α4αβ2, and α1β1δ1ε sub-types of nicotinic ACh receptor ion channels expressed in mammalian HEK 293 cells. […]
measurement_label: EC50
Could you kindly put the unit after your number?

Give the measured EC50 for O=C(c1n[nH]c2ccccc12)N1[C@@H]2C[C@H]3C[N@](CC[C@H]31)C2 [Example 34b]
250 nM
